assay: compounds altering circadian rhythm period length – cell-based, LOPAC library, luminescence reporter (AID 2774); conditions: circadian reporter cells, at 7 µM, actives lie on both sides;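 note: values are relative to mean of DMSO wells on each plate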
Calls of active or inactive are those of the source. The rule behind the calls is not given here.
Value Type: period change

Would you please look over these solved cases?
{"Compound": "OC[C@H]1O[C@@H](n2cnc3c(NC4CCCCC4)ncnc32)[C@H](O)[C@@H]1O", "period change": "0.08 h (inactive)"}
{"Compound": "O=C(O)CCC(NC(=O)c1ccccc1C(=O)O)C(=O)O (stereo unspecified)", "period change": "-0.08 h (inactive)"}
{"Compound": "OCC1O[C@H](O)C(Cl)C(O)C1O (stereo partly specified)", "period change": "0.3 h (inactive)"}
{"Compound": "CCC(=O)N1CCN(C(=O)c2ccccc2)CC1", "period change": "-0.115 h (inactive)"}
{"Compound": "C=CCn1c(=O)c2c(nc(-c3ccc(S(=O)(=O)O)cc3)n2C)n(C)c1=O", "period change": "-0.155 h (inactive)"}

Challenge: Answer with the recorded period change for the compound listed here: NCC1OC(O[C@@H]2[C@H](O)C(OC3C(O)C(N)CC(N)C3OC3OC(CO)C(O)C(O)C3N)O[C@@H]2CO)C(N)C(O)C1O (stereo partly specified)
Response given: 0.005 h (inactive)

Challenge: Read the entry CC1(C)CCC(NC(=O)[C@@H](N)CCC(=O)O)CC1 and write its reported period change.
Response given: -0.095 h (inactive)

* * *

Entries and their measured fold change follow.
assay: viability loss with induced miR-34 in A549 – imaging, A549 dox-inducible miR-34, nuclei and caspase counts, primary screen (AID 1347080); conditions: A549 miR-34 inducible, Hoechst nuclei count, 48 h; stronger effect = lower value; cell number ratio, induced over uninduced
Please reply with the value in numeric form only.

Below, each entry is followed by its recorded fold change result.
{"Molecule": "O=C(Oc1cc(S(=O)(=O)c2ccccc2)ccc1[N+](=O)[O-])c1ccc(Cl)cc1", "fold change": 0.897}
{"Molecule": "Cc1ccc(S(=O)(=O)NCCCOC(=O)Nc2ccncc2)cc1", "fold change": 0.881}
{"Molecule": "O=C(C=Cc1ccc(O)c(O)c1)c1ccc(O)cc1O", "fold change": 0.953}
{"Molecule": "COc1ccc(-c2cc(=O)c3c(O)cc(O)cc3o2)cc1", "fold change": 0.79}
{"Molecule": "CCCC1CC(C(=O)NC(C(C)O)[C@@H]2OC(SC)C(O)C(O)C2O)N(C)C1 (stereo partly drawn)", "fold change": 0.883}

Challenge: Name the recorded fold change of the item CN1CCc2cc(NC(=O)Nc3cccnc3)ccc21 in your answer.
Response given: 1.02

Challenge: Supply measured fold change of COCC1=C(C(=O)OC(C)OC(=O)OC(C)C)N2C(=O)C(NC(=O)C(=NOC)c3csc(N)n3)C2SC1 (stereo not drawn) in your reply.
Response given: 0.946

Challenge: Please indicate fold change recorded for CCCC(Nc1nc(-c2ccc(NC(=O)NCC)c(OC)c2)ncc1C)c1cccnc1 (stereo not drawn)
Response given: 1.06

Challenge: Return reported fold change. Input molecule: Cc1cc(CN(C)C(=O)c2cc(-c3cnn(C(C)C)c3)nc3cc(F)ccc23)on1
Response given: 0.883

Challenge: Quickly give me recorded fold change for N#C/C(=C/c1ccc(O)c(O)c1)C(=O)OC/C=C/c1ccccc1
Response given: 1.11

* * *

test: compounds altering circadian rhythm period length – cell-based, LOPAC library, luminescence reporter (AID 2774); details: circadian reporter cells, at 7 µM, actives lie on both sides;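 note: values are relative to mean of DMSO wells on each plate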
The source made the active and inactive calls. No rule for the calls is given here.
Examples of compounds with documented period change follow.

Example entries begin here.
{"Compound": "CCN(c1nc(N)c(C(=O)N=C(N)N)nc1Cl)C(C)C", "period change": "-0.06 h (inactive)"}
{"Compound": "C=CCN1CCc2c(cc(O)c(O)c2Cl)C(c2ccccc2)C1 (centres undefined)", "period change": "0.25 h (inactive)"}
{"Compound": "C=CC1(C)CC(=O)C2(O)C(C)(O1)C(OC(C)=O)C(O)C1C(C)(C)CCC(O)C12C (centres undefined)", "period change": "0.345 h (inactive)"}

Now let's try a different one.
Challenge: Provide period change value for the following compound: O=C(O)CC1CCCc2ccccc2C1O (centres undefined)
Response given: 0.085 h (inactive)

* * *

# key: entry, value: fold change
experiment: viability loss with induced miR-34 in A549 – imaging, A549 dox-inducible miR-34, nuclei and caspase counts, primary screen (AID 1347080); settings: A549 miR-34 inducible, Hoechst nuclei count, 48 h; stronger effect = lower value; cell number ratio, induced over uninduced
Please reply with the value in numeric form only.

# annotated cases, reported fold change shown
{"Compound": "Cc1cc(C(=O)NNCc2ccccc2)no1", "fold change": 0.777}
{"Compound": "Cn1nc(C(C)(C)C)cc1C(=O)NC(Cc1cccc(Cl)c1)C(=O)NCC#N (stereo not drawn)", "fold change": 0.927}

Alright, here's another compound for you.
Challenge: Identify measured fold change corresponding to C=C1C(=CC=C2CCC[C@]3(C)C(C(C)CCCC(C)(C)O)CC[C@@H]23)CC(O)CC1O (stereo partly drawn)
Response given: 0.915
